Values from ChEMBL document CHEMBL1201862

Recorded GI50 values for a group of molecules are listed next.
- Test system: SNB-19
- ASSAY REMARKS: NCI tumour cell line growth inhibition, 48 h
Activity calls are given as the source filed them. No stated cut-off is given here; in the data, active = GI50 up to about 1.1 µM and inactive = higher.

For orientation, consider the following solved cases.
COc1cc2c(c(C)c1O)[C@H]1COc3ccccc3[C@H]1O2 = 1.49 µM (inactive)
O=C(OC1CN2CCC1CC2)N(c1ccccc1)c1ccccc1 (centres undefined) = > 100 µM (inactive)
Cc1cc(/C=C/c2cc[n+](C)c3ccccc23)c(O)c2ncccc12 = 4.55 µM (inactive)
COC(=O)[C@@H](C)[C@H]1CC[C@@](C)(CCC2=C(C)CC3C=C(C)CCC3C2(C)C)OO1 (some centres undefined) = 1.72 µM (inactive)
CCCCCCCC(=O)OC[n+]1ccc(-c2c(COC(=O)NC(C)C)c(COC(=O)NC(C)C)c3n2CCC3)cc1 = 88.9 µM (inactive)
COc1ccc(N2C(=O)C3C=CC(n4[nH]c(=O)n(Cc5ccccc5)c4=O)CC3C2=O)cc1 (centres undefined) = > 100 µM (inactive)

CC(=O)N(C(C)=O)C1=C2c3ccccc3N(S(=O)(=O)c3ccccc3)C2n2c(=O)n(-c3ccccc3)c(=O)n2C1 (centres undefined) on SNB-19 gives GI50 = 30.3 µM (inactive)

"O=C(/C=C/c1ccc(O)cc1)c1ccc2c(c1)OCO2" on SNB-19 gives GI50 = 17.1 µM (inactive)

"CC(=O)c1sc(Nc2ccc(Cl)c(Cl)c2)nc1C" on SNB-19 gives GI50 = > 100 µM (inactive)

"N#CC(=N)c1ncn(-c2ccccc2N)c1N" on SNB-19 gives GI50 = > 100 µM (inactive)

O=C(O)CCC(NC(=O)c1ccc(Nc2nc3cc(C(F)(F)F)ccc3nc2C(=O)O)cc1)C(=O)O (centres undefined) on SNB-19 gives GI50 = > 100 µM (inactive)

"CNC(=S)/C(=N\Nc1[nH]cnc1C(N)=O)C(N)=S" on SNB-19 gives GI50 = 45.3 µM (inactive)

"OCCCN=C1CCCCC1" on SNB-19 gives GI50 = > 100 µM (inactive)

* * *

- System: DU-145
- ASSAY REMARKS: NCI tumour cell line growth inhibition, 48 h
Activity calls are given as the source filed them. Rule as the data show it: active = GI50 up to about 1.1 µM and inactive = higher.
Mark one answer only. Choices: active, inactive

CCCCCCCCCCCCCCCC(=O)ON1C(=S)NC(C)(c2ccccc2)C1=S (centres undefined) = inactive
CSC1(Cc2ccccn2)C(=O)Nc2cccc([N+](=O)[O-])c21 (centres undefined) = inactive
Cc1c(-c2ccccc2)n(C)c2cn[nH]c(=O)c12 = inactive
COc1ccc2c(c1)nc1n2C(c2c(F)cccc2Cl)SC1 (centres undefined) = inactive
Clc1ccc2c(c1)CC1C[N+]3=C(CCCCC3)C1=C2 (centres undefined) = inactive
C#CC(O)/C=C/CCCCCCC#CC/C=C\CC#CCCCCCC/C=C/C(O)C#C (centres undefined) = inactive
CCOC(=O)c1sc2c(c1OC(=O)c1cc(OC)c(OC)c(OC)c1)c(=O)n(-c1ccccc1)c(=S)n2-c1ccccc1 = inactive
CCOC(=O)C(SCCO)C(C(=O)OCC)n1cc(C)c(=O)[nH]c1=O (centres undefined) = inactive

Data request: Test call for this compound, please: "O=C(/C=C1\C[C@H]2C=Nc3ccccc3C(=O)N2C1)NCCCNC(=O)/C=C1\C[C@H]2C=Nc3ccccc3C(=O)N2C1"
Data returned: inactive

Data request: Test call for this compound, please: "CC(=O)ON(C(C)=O)c1ccc(-c2nc3ccccc3s2)cc1C"
Data returned: inactive

Data request: Test call for this compound, please: "CSC(=S)NN=C1CCCCC1"
Data returned: inactive
